Hey, just so you know, these numbers are from the RNAGym collection of RNA variant scans (doi:10.7554/elife.90254).

B1: LINE1-full (parent)
chain: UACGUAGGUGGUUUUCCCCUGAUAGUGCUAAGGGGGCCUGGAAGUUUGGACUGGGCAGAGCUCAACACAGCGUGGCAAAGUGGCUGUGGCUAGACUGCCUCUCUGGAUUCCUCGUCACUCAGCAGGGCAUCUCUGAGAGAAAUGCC

Variants of: B1
ASSAY METHOD TEXT: self-cleavage, relative activity (ratio to wild type); higher = more cleavage; in vitro, sequencing; the parent is a self-cleaving ribozyme
QUANTITY NAME: self-cleavage

VARIANT IDENTIFIER	QUANTITY NAME	VALUE REPORTED
U23A U26C	self-cleavage	0.99
U73A U143C	self-cleavage	1.4
U62C C98U	self-cleavage	0.02
A22G A129G	self-cleavage	1.45
U62C G126C	self-cleavage	0.01
A141G U143C	self-cleavage	1.31
A121C A142G	self-cleavage	1.1
U9C U23A	self-cleavage	1.22
U96A A117G	self-cleavage	0.11
U39A U134C	self-cleavage	1.3
U46C G74A	self-cleavage	0.52
G114U U134A	self-cleavage	1.09
G53A U73G	self-cleavage	1.05
G48A U112C	self-cleavage	1.45
U46G A136U	self-cleavage	1.34
U109C G137A	self-cleavage	1.45
G70U A92G	self-cleavage	0.08
A59G C76A	self-cleavage	0.08
A31G A94G	self-cleavage	0.94
A6G G41U	self-cleavage	0.46
U100C A117G	self-cleavage	1.49
A79G G144C	self-cleavage	0.77
